# credit: patent US20190064177A1

system.under.test: Diaphorase
assay.overview: peptide array, 1 uM labeled diaphorase, with FAD
reported.metric: fluorescence
One number for each entry.

Consider the following illustrative entries.
YRFQSGLPAKDGSG; 1490
SVLEGYQAVFGGSG; 2660
RFKYPLDGGSG; 2200
FGKLYQLYNDGSG; 3050
RLQYLFKSDGSG; 1960

Batch request: fluorescence for each of the following binders.
1. PRYQNFGGGSG
2. LLGFLGGSG

Completion:
2460
4140

Batch request: fluorescence for each of the following binders.
1. DLFQLVFSGSG
2. RSHPKHNVGSG

Completion:
1: 9010; 2: 3880
